- assayed target: furin, P09958;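 also: purified furin at 1:10 enzyme:substrate in 50 mM HEPES pH 7.5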
- Sequence (P09958 whole entry): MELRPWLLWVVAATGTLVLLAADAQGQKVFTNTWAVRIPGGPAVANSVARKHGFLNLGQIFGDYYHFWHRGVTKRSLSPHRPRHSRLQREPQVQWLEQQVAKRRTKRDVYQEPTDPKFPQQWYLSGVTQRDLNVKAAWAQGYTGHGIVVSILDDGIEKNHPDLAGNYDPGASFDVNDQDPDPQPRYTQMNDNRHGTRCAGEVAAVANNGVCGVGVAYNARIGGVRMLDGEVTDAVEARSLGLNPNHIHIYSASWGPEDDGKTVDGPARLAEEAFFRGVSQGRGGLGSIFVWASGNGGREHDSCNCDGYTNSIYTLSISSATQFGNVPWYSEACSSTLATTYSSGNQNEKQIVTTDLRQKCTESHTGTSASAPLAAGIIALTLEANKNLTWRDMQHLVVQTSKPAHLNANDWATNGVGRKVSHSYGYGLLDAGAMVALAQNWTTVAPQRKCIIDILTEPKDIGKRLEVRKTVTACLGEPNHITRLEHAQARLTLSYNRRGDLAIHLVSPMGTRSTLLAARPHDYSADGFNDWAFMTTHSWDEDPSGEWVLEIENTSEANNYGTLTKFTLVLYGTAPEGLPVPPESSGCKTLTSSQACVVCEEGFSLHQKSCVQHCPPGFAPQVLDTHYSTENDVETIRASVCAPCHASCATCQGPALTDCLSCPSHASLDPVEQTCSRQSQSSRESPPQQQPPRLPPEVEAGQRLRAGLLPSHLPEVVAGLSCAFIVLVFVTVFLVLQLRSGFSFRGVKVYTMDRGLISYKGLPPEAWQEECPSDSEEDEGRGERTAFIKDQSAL
- method: furin cleavage Z-score vs untreated control; higher = more cleavage, active = 3.5 or more, inactive = 1 or less, 8 variable residues between constant flanks
- condition set: 7.5 min
This is one part of the list. The true hit rate is not given.
outcome measure: furin cleavage Z-score

sequence: CAREIRSEEPAGNASASA [FS-2005]
reported result: 0.429
//
sequence: CARRVRIVSRAGNASASA [FS-1923]
reported result: -0.897
//
sequence: CAMEECSDHLAGNASASA [HC1731]
reported result: -0.133
//
sequence: CARRKRCMRHAGNASASA [FS-2295]
reported result: 6.23
//
sequence: CARRKRKVLHAGNASASA [FS-2515]
reported result: 1.78
//
sequence: CARRSRSSYTAGNASASA [FS-3070]
reported result: -0.67
//
sequence: CARRRRSVQLAGNASASA [FS-1789]
reported result: 1.43
//
sequence: CARAARGTIGAGNASASA [FS-2879]
reported result: -0.0204
//
sequence: CARRSRKVGSAGNASASA [FS-2455]
reported result: -0.487
//
sequence: CARGPRAVSTAGNASASA [FS-2334]
reported result: 0.54
//
sequence: CAVLATATPPAGNASASA [HC833]
reported result: -0.698
//
sequence: CARRKRYAIQAGNASASA [FU8]
reported result: 8.03
//
sequence: CAMEQCSQHLAGNASASA [HC1722]
reported result: 2.51
//
sequence: CARTMRSVGLAGNASASA [FS-1936]
reported result: 5.41
//
sequence: CAYPWPLYGNAGNASASA [HC201]
reported result: -0.792
//
sequence: CARRRRCVGLAGNASASA [FS-2403]
reported result: 2.54
//
sequence: CARRRRLVWTAGNASASA [FS-2079]
reported result: -0.712
//
sequence: CARRRRAVGLAGNASASA [FS-2595]
reported result: 3.99
//
sequence: CARCRKSCEHAGNASASA [FS-1997]
reported result: -0.455
//
sequence: CADFEVVTSTAGNASASA [HC2287]
reported result: 0.0621
//
sequence: CARAARHVVAAGNASASA [FS-1988]
reported result: 0.916
//
sequence: CARTMRSSAGAGNASASA [FS-2831]
reported result: 0.517
//
sequence: CAMEENSQHLAGNASASA [HC18]
reported result: 0.787
//
sequence: CARRKRKKKHAGNASASA [FS-1777]
reported result: -0.226
//
sequence: CAYVTGMTTDAGNASASA [HC1211]
reported result: -0.923
//
sequence: CARRRRDVVTAGNASASA [FS-2232]
reported result: 11.1
//
sequence: CAEVIKGGRHAGNASASA [HC852]
reported result: -2.02
//
sequence: CAAAIGSVGLAGNASASA [HC1079]
reported result: -0.425
//
sequence: CARCPRQVSTAGNASASA [FS-3216]
reported result: 4.16
//
sequence: CARAARSRGAAGNASASA [FS-2324]
reported result: -0.759
